Values compiled from patent EP4782453A1.

System: MV-4-11 (carrying MLL-AF4)
method: Inhibition of proliferation of human tumor cells (Alamar Blue, 7 days), MV-4-11
Assay type: cell-based
particulars: Homo sapiens, MV4-11, 168 h, MV-4-11 cells (carrying MLL-AF4), method calls the value GI50
pIC50: −log10 of the molar value.
Rule: pIC50 under 8 gives -1, otherwise 1.

Dear colleague, could you confirm whether CCN1CCN(CCC[C@H](C(C)C)N2CC(c3cc(-c4ccc(F)cc4C(=O)N4CCOC[C@H]4C)c4cnc(C)n4c3)C2)CC1 has pIC50 at or above 8? 1

Does the reported pIC50 for CCN(C(=O)c1cc(F)ccc1-c1cc([C@@H]2CCN(C[C@H]3CC[C@H](NS(=O)(=O)CC)CC3)C2)cc2cncn12)C(C)C fall at or above the 8 mark? 1

Answer whether pIC50 of CC(=O)N1CCC(CN2CC(c3cc(-c4ccc(F)cc4C(=O)N4CCOC[C@H]4C)c4c(F)nc(C)n4c3)C2)CC1 is greater than or equal to 8. -1

Hi, just wondering whether CCN(C(=O)c1cc(F)ccc1-c1cc(C2CN([C@H](CCCN3CCN(C)CC3)C(C)C)C2)cc2c1cnn2C)C(C)C shows pIC50 of 8 or higher. -1

Evaluate CCN(C(=O)c1cc(F)ccc1-c1cc(C2CN([C@H](CCCN3C4COCC3C4)C(C)C)C2)cn2c(C)ncc12)C(C)C : pIC50 at minimum 8? 1

Quick check, pIC50 >= 8? Cc1ncc2c(-c3ccc(F)cc3C(=O)N(C(C)C)C3CC3)cc(N3CCN(C(=O)C4NC5CCC4CC5)CC3)cn12 (stereo not shown) -1

// inclusive: pIC50 at least 8? input: CCNC(=O)N1CCC(C(C)N2CC(c3cc(-c4ccc(F)cc4C(=O)N(CC)C(C)C)c4cnc(C)n4c3)C2)CC1 (stereo not shown) 1

---

System: MV-4-11 (carrying MLL-AF4)
method: Inhibition of proliferation of human tumor cells (Alamar Blue, 7 days), MV-4-11
Format: cell-based
particulars: Homo sapiens, MV4-11, 168 h, MV-4-11 cells (carrying MLL-AF4), method calls the value GI50
For each entry below, report its pIC50 value.
Bear in mind: pIC50 is minus log10 of a mol/L concentration; give just that figure.

So what's the measured pIC50 for this one? Cc1nc(F)c2c(-c3ccc(F)cc3C(=O)N3CCOC[C@H]3C)cc(C3CN(CC4CCN(C(=O)N5CC(F)(F)C5)CC4)C3)cn12 7.44

Fill blank: measured pIC50 of the molecule COCCN(C)C1CC(C(C(C)C)N2CC(c3cc(-c4ccc(F)cc4C(=O)N4CCOC[C@H]4C)c4cnn(C)c4c3)C2)C1 (stereo partly shown) is ____. 7.89

Record request: pIC50 value, item CCN(C(=O)c1cc(F)ccc1-c1cc(C2=CCC(NCc3ccc(-c4cc(OC)c(OC)nn4)cc3)CC2)cn2cncc12)C(C)C (stereo not shown) 7.77

Which measured pIC50 value corresponds to Cc1ncc2c(-c3ccc(F)cc3C(=O)N3CCOC[C@H]3C)cc(C3CN(CC4CCOCC4)C3)cn12 ? 7.38

---

assayed-target: Menin-MLL (Homo sapiens)
Construct: His-Menin (M1-L615 end); purchased BIORTUS BP9210
method: Inhibitory activity against Menin-MLL binding (fluorescence polarization)
particulars: fluorescence polarization; 150 nM His-Menin, 15 nM FITC-MLL; 25°C for 60 min; read-out: Menin-MLL IC50
Description: • His-Menin (M1-L615 end), purchased from BIORTUS, Catalog Number: BP9210; and • FITC-MLL4-43, purchased from GenScript, Catalog Number: C491HFF190-3/PE1324. In a 10 µL reaction solution (20 mM HEPES, pH 7.5, 50 mM NaCl, 1 mM DTT, 0.01% BSA) containing any compound from the examples, 150 nM His-Menin was added to a 384-well plate (Corning, Model: 4514). […] Changes in fluorescence polarization were measured using a plate reader (PerkinElmer, Envision 2104). […]
reported-property: log10 of IC50 (log10 of the value in nM)
Values are log10 of IC50 in nM.

Which log10 of IC50 value belongs to CNCCCC(C(C)C)N1CC(c2cc(-c3ccc(F)cc3C(=O)N(CC(F)F)C(C)C)c3cnc(C)n3c2)C1 (stereo not drawn) ? 0.95

What does the data say about its log10 of IC50? Entry: Cc1nc(F)c2c(-c3ccc(F)cc3C(=O)N3CCOC[C@H]3C)cc(C3CN(CC4CCN(S(=O)(=O)C5CC5)CC4)C3)cn12 2.04

What measured log10 of IC50 goes with COC1CCN(CCC[C@H](C(C)C)N2CC(c3cc(-c4ccc(F)cc4C(=O)N4CCOC[C@H]4C)c4c(F)nc(C)n4c3)C2)CC1 ? 0.68

// query log10 of IC50 value for entry CCN(C(=O)c1cc(F)ccc1-c1cc(C2CN(C(CC[C@@H]3COCCN3)C(C)C)C2)cc2c1cnn2C)C(C)C (stereo partly drawn) 0.81

State the recorded log10 of IC50 for this entry: CCN(C(=O)c1cc(F)ccc1-c1cc(C2CN([C@H](CCCN3CCN(CCC#N)C(=O)C3)C(C)C)C2)cn2c(C)ncc12)C(C)C 0.70

Which log10 of IC50 is listed for CCN(C(=O)c1cc(F)ccc1-c1cc(C2CCN(C[C@H]3C[C@@H](NS(=O)(=O)CC)C3)C2)cn2c(C)ncc12)C(C)C (stereo partly drawn) ? 1.85

---

assayed-target: Menin-MLL (Homo sapiens)
Construct: His-Menin (M1-L615 end); purchased BIORTUS BP9210
method: Inhibitory activity against Menin-MLL binding (fluorescence polarization)
particulars: fluorescence polarization; 150 nM His-Menin, 15 nM FITC-MLL; 25°C for 60 min; read-out: Menin-MLL IC50
pIC50: −log10 of the molar value.
Label Y when pIC50 is at or above 8; otherwise label N.

In plain terms: is recorded pIC50 at least 8 for Cc1cncc2c(-c3ccc(F)cc3C(=O)N3CCOC[C@H]3C)cc(CC3CN(CC4CCOCC4)C3)n12 [Example 260] ? Y

Is pIC50 at least 8? Consider CCN(C(=O)c1cc(F)ccc1-c1cc(C2CN([C@@H](CC[C@H]3COCCN3)C(C)C)C2)cn2c(C)ncc12)C(C)C [Example 457-1] N

// inclusive: pIC50 at least 8? input: Cc1nc(F)c2c(-c3ccc(F)cc3C(=O)N3CCOC[C@H]3C)cc(C3CN([C@H](CCCN4CC5CC(C4)N5C)C(C)C)C3)cn12 [Example 349] Y

Threshold query (pIC50 >= 8) on Cc1nc(F)c2c(-c3ccc(F)cc3C(=O)N3CCOC[C@H]3C)cc(C3CN([C@H](CCCN4CCN(CCF)CC4)C(C)C)C3)cn12 [Example 361] Y

// inclusive: pIC50 at least 8? input: CC(C)N(CC(F)F)C(=O)c1cc(F)ccc1-c1cc([C@@H]2CCN(CCN3CCC(NC(=O)OC(C)(C)C)CC3)C2)cc2c1cnn2C [Example 166-1] N

---

assayed-target: Menin-MLL (Homo sapiens, UniProt O00255)
Construct: His-Menin (M1-L615 end); purchased BIORTUS BP9210
Sequence (O00255 1-615 isoform O00255-1): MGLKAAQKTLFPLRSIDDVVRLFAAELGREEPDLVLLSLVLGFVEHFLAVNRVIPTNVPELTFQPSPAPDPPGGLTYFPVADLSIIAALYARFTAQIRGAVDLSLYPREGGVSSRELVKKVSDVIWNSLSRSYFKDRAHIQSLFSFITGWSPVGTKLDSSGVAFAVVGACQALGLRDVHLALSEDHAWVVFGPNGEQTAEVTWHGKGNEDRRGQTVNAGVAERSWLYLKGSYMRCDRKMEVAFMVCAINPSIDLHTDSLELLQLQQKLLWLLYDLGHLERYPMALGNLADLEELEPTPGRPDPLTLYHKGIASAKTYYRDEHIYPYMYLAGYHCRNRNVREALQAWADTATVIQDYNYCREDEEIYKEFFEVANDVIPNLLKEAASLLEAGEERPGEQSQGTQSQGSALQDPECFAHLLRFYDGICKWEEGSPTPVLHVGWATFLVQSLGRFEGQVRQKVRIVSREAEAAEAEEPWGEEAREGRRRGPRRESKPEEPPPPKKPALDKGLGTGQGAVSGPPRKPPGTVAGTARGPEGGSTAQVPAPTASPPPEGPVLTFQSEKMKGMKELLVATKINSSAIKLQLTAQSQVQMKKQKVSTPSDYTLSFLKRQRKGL
method: Inhibitory activity against Menin-MLL binding (fluorescence polarization)
particulars: Menin-MLL IC50, fluorescence polarization; 150 nM His-Menin, 15 nM FITC-MLL; 25°C for 60 min
Can you tell me log10(IC50) for the items I'm about to list?
Answers are given as log10 of IC50 in µM.

What value of log10(IC50) has been recorded for this entry: CCN(C(=O)c1cc(F)ccc1-c1cc(C2CCN(C[C@]3(F)CC[C@@H](NS(=O)(=O)CC)CC3)C2)cn2c(C)ncc12)C(C)C (stereo partly shown) -1.55

May I ask what log10(IC50) has been recorded for CCN(C(=O)c1cc(F)ccc1-c1cc([C@H]2CC[C@@H](NCc3ccc(-c4cc(OC)c(OC)nn4)cc3)CC2)cn2cncc12)C(C)C ? -2.22

Item under review: CCN(C(=O)c1cc(F)ccc1-c1cc(C2CCN(C[C@H]3CC[C@@H](NS(=O)(=O)CC)CC3)C2)cc2cncn12)C(C)C (mixture of isomers) . Reported log10(IC50)? -1.35

What value of log10(IC50) has been recorded for this entry: CCS(=O)(=O)N[C@H]1CC[C@H](CN2CC(Cc3cc(-c4ccc(F)cc4C(=O)N(CC(F)F)C(C)C)c4cnn(C)c4c3)C2)CC1 -1.47

Field request: log10(IC50) | item: CCN(C(=O)c1cc(F)ccc1-c1cc(N2CCN(CC[C@H]3CC[C@H](NS(=O)(=O)CC)CC3)CC2)cn2c(C)ncc12)C(C)C -0.87

Would you mind telling me what log10(IC50) value was observed for CCN(C(=O)c1cc(F)ccc1-c1cc(C2=CCN(C(=O)C3NC4CCC3CC4)CC2)c2ccncn12)C(C)C (stereo not shown) ? -0.70

# get_value(readout='log10(IC50)', item= CCN(C(=O)c1cc(F)ccc1-c1cc(C2CCN(C(=O)[C@@H]3CCCCN3)C2)cn2c(C)ncc12)C(C)C (stereo partly shown) ) -0.68

Given the compound CCS(=O)(=O)N[C@H]1CC[C@H](CN2CC(c3cc(-c4ccc(F)cc4C(=O)N4CCOC[C@H]4C)c4c(F)nc(C)n4c3)C2)CC1 , what is its reported log10(IC50)? -1.74

Requested field: log10(IC50). Item: Cc1nc(F)c2c(-c3ccc(F)cc3C(=O)N3CCOC[C@H]3C)cc(C3CN([C@@H](C)C4CCN(C(=O)[C@@H]5C[C@@H]5F)CC4)C3)cn12 -2.30

Bench note: what log10(IC50) did CCN(C(=O)c1cc(F)ccc1-c1cc(C2=CCN(C(=O)C3NC4CCC3CC4)CC2)n2ccncc12)C(C)C (stereo not shown) show? -1.60

Look at this compound and give its reported log10(IC50). CCN(C(=O)c1cc(F)ccc1-c1cc(C2CN(C(=O)[C@@H]3CCCCN3)C2)cn2c(C)nc(Cl)c12)C(C)C -1.72

Name the reported log10(IC50) value associated with the compound CCN(C(=O)c1cc(F)ccc1-c1cc(C2CCN(C[C@H]3CC[C@H](NS(=O)(=O)CC)CC3)C2)cn2c(C3CC3)ncc12)C(C)C (stereo partly shown) -0.65

Fill blank: measured log10(IC50) of the compound CCS(=O)(=O)N[C@H]1CC[C@H](CN2CC(c3cc(-c4ccc(F)cc4C(=O)N4CCOC[C@H]4C)c4cnc(C)n4c3)C2)CC1 is ____. -1.76
